What GI50 was measured for each of the following?
test system: CAKI-1 renal; assay: NCI tumour cell line growth inhibition, 48 h

Task: Which measured GI50 value corresponds to C(=C1c2ccccc2-c2ccccc21)c1ccccn1 ?
Result: 3230 nM

Task: Look up GI50: O=C(Nc1cc(C(F)(F)F)ccc1F)Nc1n[nH]c2ccccc12
Result: > 100000 nM

Task: Fill in the blank: the reported GI50 of COc1ccc2[nH]cc(-c3nc(-c4cn(C)c5ccncc45)cs3)c2c1 is ____.
Result: 1840 nM

Task: Name the reported GI50 value associated with the compound C#C[C@]1(O)CC[C@H]2[C@@H]3CC=C4c5sc(N=C(N)N)nc5CC[C@]4(C)[C@H]3CC[C@@]21C
Result: 615 nM

Task: // query GI50 value for entry CS(=O)(=O)CCNCc1ccc(-c2ccc3ncnc(Nc4ccc(OCc5cccc(C(F)(F)F)c5)cc4)c3c2)o1
Result: 5570 nM

Task: Please report the recorded GI50 for CCOC(=O)CC1(O)C=CC(=O)C=C1 .
Result: 2.62 µg/mL

Task: Returns the measured GI50 for the input compound. Input: CC(=O)O[C@H]1CC[C@]2(C)[C@H]3CC[C@@H]4[C@H]5[C@H](C(C)C)CC[C@]5(C(=O)OCC(CO)(CO)N=C(N)N)CC[C@@]4(C)[C@]3(C)CC[C@H]2C1(C)C
Result: 1460 nM

Task: # lookup: GI50 of CN1C(=O)CNC(=O)[C@H](NC(=O)c2nc3ccccc3cc2O)CSSC[C@H]1C(=O)NCCc1nc2ccccc2cc1O
Result: > 46600 nM

Task: Need GI50, item Cn1c(=O)cc2c3c(c(NCCCO)ccc31)C(=O)c1ccccc1-2
Result: 1790 nM

* * *

tested on: M14 melanoma; test: NCI tumour cell line growth inhibition, 48 h
Give measured TGI for each item. Keep answers brief.
Hi! Could you send only the number? It should be in µM, unit omitted.

Task: # TGI lookup, item Brc1ccc([I+]c2ccc(Br)cc2)cc1
Result: 5.14

Task: May I ask what TGI has been recorded for CC(=O)/C=C/C1=C(c2cc3ccccc3s2)c2ccccc2CC1 ?
Result: 31.3

Task: Which TGI value is on record for Nc1ccc(Nc2nc(F)nc(-c3c4ccccc4c4n3CCS4)n2)cc1 ?
Result: 31.6

Task: Reported TGI, molecule CN1CCN(c2ccc3c4c(cccc24)C(=O)N(CCN2CCN(CCCN4CCN(CCN5C(=O)c6cccc7c(N8CCN(C)CC8)ccc(c67)C5=O)CC4)CC2)C3=O)CC1 : ____
Result: 14.2

* * *

system: HL-60(TB) leukemia; assay: NCI tumour cell line growth inhibition, 48 h
Reported metric: TGI

Task: Could you share which TGI value was measured for CCCCC(=O)N/N=C/c1cc(I)cc(I)c1O ?
Result: 7.27 µM

Task: Could you tell me which TGI is on file for C=C=C(C)[Si](C)(C)C ?
Result: > 100 µM

Task: I'd like to know its TGI. The compound in question is COc1ccc2c3c1OC1C(=O)C=CC4(O)C(C2)NCC[C@@]314 (stereo partly specified)
Result: 4.4 µM

Task: Item C=CC1CC12C(=O)C1OC2(C)C2C(=O)c3c(ccc4c3ccc3ccccc34)C(=O)C12 (stereo unspecified) has what recorded TGI?
Result: > 100 µM

Task: Bench note: what TGI did O=C(O)CSc1cc(-c2ccccc2)nc2ccccc12 show?
Result: 58.2 µM

Task: Any idea what its TGI is? The compound is Cc1c(-c2cc3n(n2)C(c2cccs2)C(C#N)=C(c2ccccc2)N3)c(=O)n(-c2ccccc2)n1C (stereo unspecified)
Result: > 100 µM
